The origin of these recorded values is ChEMBL document CHEMBL1833973.

- Target system: Kallikrein-7 (Homo sapiens, UniProt P49862)
- Sequence (P49862 whole entry): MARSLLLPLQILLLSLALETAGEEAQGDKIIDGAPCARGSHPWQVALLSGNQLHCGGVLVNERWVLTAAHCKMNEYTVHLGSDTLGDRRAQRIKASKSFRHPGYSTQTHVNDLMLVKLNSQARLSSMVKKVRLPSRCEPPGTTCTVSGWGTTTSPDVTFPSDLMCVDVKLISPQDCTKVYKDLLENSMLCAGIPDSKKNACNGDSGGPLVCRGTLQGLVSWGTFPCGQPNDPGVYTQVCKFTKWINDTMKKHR
Exercise: state measured pIC50 for each of the molecules provided.
Answers are plain numbers, as −log10 of the molar value.

COc1cc2c(OC)c3cc(C)oc(=O)c3c(O)c2c(O)c1-c1c(OC)cc2c(OC)c3cc(C)oc(=O)c3c(O)c2c1O	3.95
COc1cc(O)c2c(O)c3c(=O)oc(C)cc3c(OC)c2c1 [PAEPALANTINE]	3.78

Turning to the following molecule.
Q: Please give measured pIC50 of the following entry: COc1cc2cc3c(c(O)c2c(O)c1-c1c(OC)cc2cc4c(c(O)c2c1O)C(=O)O[C@H](C)C4)C(=O)O[C@H](C)C3 [VIOXANTHIN]
Result: 3.87

---

Exercise: state measured pKi for each of the molecules provided.
- Target system: Kallikrein-7 (Homo sapiens, UniProt P49862)
Numbers only, as −log10 of the molar value.

The cases that follow already have their pKi on record.
COc1cc2cc3c(c(O)c2c(O)c1-c1c(OC)cc2cc4c(c(O)c2c1O)C(=O)O[C@H](C)C4)C(=O)O[C@H](C)C3 [VIOXANTHIN]	4.43
COc1cc(O)c2c(O)c3c(=O)oc(C)cc3c(OC)c2c1 [PAEPALANTINE]	4.15

Turning to the following molecule.
Q: For Kallikrein-7 (Homo sapiens, UniProt P49862), give the measured pKi of the entry COc1cc2c(OC)c3cc(C)oc(=O)c3c(O)c2c(O)c1-c1c(OC)cc2c(OC)c3cc(C)oc(=O)c3c(O)c2c1O
Result: 4.91
